B1: Azoarcus group I ribozyme (parent)
chain: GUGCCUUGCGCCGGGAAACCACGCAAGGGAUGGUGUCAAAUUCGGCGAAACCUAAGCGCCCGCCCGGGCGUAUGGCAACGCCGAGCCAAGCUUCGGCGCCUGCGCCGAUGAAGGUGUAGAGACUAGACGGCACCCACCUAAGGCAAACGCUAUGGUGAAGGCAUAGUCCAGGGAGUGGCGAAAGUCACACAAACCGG

variants of: B1; test: reverse-splicing fitness (ratio to wild type); higher = more active; in vitro selection; Mg2+ level not given

{"columns": ["MUTANT DESIGNATION", "reverse-splicing fitness"],
 "data": [
  ["C82A A145U C150U C169A", 0.00956],
  ["C82U A111G A120U A145C C150A C169U U176C", 0.00235],
  ["C82G A120G A145U U176G", 0.0047],
  ["C82U A111C A120C A145G C150A C169G U176A", 0.015],
  ["A145C C169A U176G", 0.00461],
  ["C82U A111G A120G A145C C150A C169A U176G", 0.00425],
  ["C82G A111C A120C A145C C150G C169U U176G", 0.00572],
  ["C82A A120G A145G C169G U176A", 0.0223],
  ["C82A A111G A120C A145U", 0.0424],
  ["C82G A120G C150A", 0.00962],
  ["C82G A111U A145U C169G U176G", 0.00618],
  ["C82G A111U A120U A145U U176G", 0.00425],
  ["C82G A145C C169U", 0.016],
  ["C82U A111C A120U C150U C169U", 0.00505],
  ["A120U A145G C150A C169U U176A", 0.0235],
  ["C82A A111U A145G C150G U176G", 0.00688],
  ["C82A C150A C169G U176A", 0.0198],
  ["C82G A111G A120U C150G U176G", 0.00299],
  ["A111U A145G C169U", 0.111],
  ["A111C C169G U176C", 0.0355],
  ["A111G A145C C169U U176A", 0.0432],
  ["C82G A111U A145U C169A U176A", 0.0121],
  ["C82A A111U A120G A145U C169A U176C", 0.0107],
  ["A120C A145G C150A C169U U176C", 0.0824],
  ["A111G A145G C150U C169U U176A", 0.0415],
  ["A120C A145U C150U C169G", 0.0196],
  ["A111U A120U A145G C150G C169U", 0.0125],
  ["A111U A120U A145C C150G C169G", 0.00697],
  ["C82A A145G C150U C169A U176G", 0.00665]
]}
